Target: T1, BCMA-Fc fusion protein (Acrobiosystems, catalogue no. BC7-H5254) (human, UniProt Q02223 1-54)
T1 construct: Bought fusion protein; Used as coated antigen in ELISA; also called BCMA抗原; BCMA-Fc抗原; not shown: human Fc
T1 sequence (looked up): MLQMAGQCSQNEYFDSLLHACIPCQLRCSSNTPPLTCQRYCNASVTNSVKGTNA
Experiment: ELISA; affinity estimated from the EC50 ratio to J6 (J6 taken as 0.2 nM)
ENDPOINT NAME: Kd
State the value, then name its unit.

B10.4 (affinity-matured mutant of B10) (scFv, also called 突变体B10.4) scFv: QVQLQQSGAEVKKPGSSVKVSCKASGGTFSKSAIMWVRQAPGQGLEWMGGVIPIFGTANYAQKFQGRVTITADESTSTAYMELSSLRSEDTAVYYCARGWYLDLWGRGTLVTVSSGGSSRSSSSGGGGSGGGGLPVLTQPPSASGTPGQRVTISCSGSSNNIGGYSVNWYQQFPGTAPKLLIYRNNQRPSGVPDRFSGSKSGASASLAISGLQSEDEADYYCAAWDDSVIGWLFGTGTQLTVL; 0.31 nM
B10.9 (affinity-matured mutant of B10) (scFv, also called 突变体B10.9) scFv: QVQLQQSGAEVKKPGSSVKVSCKASGGTFSKSAIQWVRQAPGQGLEWMGGVIPIFGTANYAQKFQGRVTITADESTSTAYMELSSLRSEDTAVYYCARGWYLDLWGRGTLVTVSSGGSSRSSSSGGGGSGGGGLPVLTQPPSASGTPGQRVTISCSGSSNNIGGYSVNWYQQFPGTAPKLLIYRNNQRPSGVPDRFSGSKSGASASLAISGLQSEDEADYYCAAWDDSEIGWLFGTGTQLTVL; 0.29 nM

Moving on to the next binder.
Ask | Any idea what Kd was measured for B10.5 (affinity-matured mutant of B10) (scFv, also called 突变体B10.5) scFv: QVQLQQSGAEVKKPGSSVKVSCKASGGTFSKSAIHWVRQAPGQGLEWMGGVIPIFGTANYAQKFQGRVTITADESTSTAYMELSSLRSEDTAVYYCARGWYLDLWGRGTLVTVSSGGSSRSSSSGGGGSGGGGLPVLTQPPSASGTPGQRVTISCSGSSSNIGGYSVNWYQQFPGTAPKLLIYRNNQRPSGVPDRFSGSKSGASASLAISGLQSEDVADYYCAAWDDSLIGYVFGTGTQLTVL ?
Reply | 0.27 nM
